Hey, just so you know, these numbers are from ChEMBL document CHEMBL1914368.

- SYSTEM: Tyrosine-protein kinase Lyn (Homo sapiens, UniProt P07948)
- Sequence (P07948 whole entry): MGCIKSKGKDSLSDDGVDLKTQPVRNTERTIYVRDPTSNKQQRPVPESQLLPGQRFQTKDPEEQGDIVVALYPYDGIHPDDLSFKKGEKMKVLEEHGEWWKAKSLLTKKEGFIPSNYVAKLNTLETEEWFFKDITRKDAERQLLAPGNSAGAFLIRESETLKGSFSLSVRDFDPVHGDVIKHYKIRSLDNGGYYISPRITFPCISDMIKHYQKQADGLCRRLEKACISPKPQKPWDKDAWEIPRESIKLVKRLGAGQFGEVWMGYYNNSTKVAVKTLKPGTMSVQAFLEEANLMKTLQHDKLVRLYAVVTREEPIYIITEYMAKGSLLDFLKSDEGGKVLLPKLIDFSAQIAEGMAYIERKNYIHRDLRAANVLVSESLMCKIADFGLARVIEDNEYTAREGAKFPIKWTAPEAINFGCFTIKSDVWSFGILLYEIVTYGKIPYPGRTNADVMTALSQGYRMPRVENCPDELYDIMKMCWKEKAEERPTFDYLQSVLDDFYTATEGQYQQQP
- ASSAY INFO: Inhibition of LYN-A expressed in Sf9 cells after 60 mins by TR-FRET Assay
MEASURED QUANTITY: IC50 (nM)

Here are 4 compounds together with their reported answers.
>  <TEST SMILES>
Cc1cc(Cl)ccc1Nc1nc2ccc(N(C)C(=O)/C=C/CN(C)C)cc2n2cncc12

>  <OBSERVED RESULT>
378

$$$$
>  <TEST SMILES>
Cc1ccccc1Oc1nc2cc(F)c(N(C)C(=O)/C=C/CN(C)C)cc2n2cncc12

>  <OBSERVED RESULT>
6020

$$$$
>  <TEST SMILES>
Cc1cc(F)ccc1Oc1nc2ccc(N(C)C(=O)/C=C/CN(C)C)cc2n2cncc12

>  <OBSERVED RESULT>
3730

$$$$
>  <TEST SMILES>
CN(C)C/C=C/C(=O)N(C)c1cc2c(cc1F)nc(Nc1ccccc1Cl)c1cncn12

>  <OBSERVED RESULT>
2130

$$$$

[I] CNc1ccc2nc(Oc3ccc(F)cc3C)c3cncn3c2c1
[II] COc1cc2nc(Nc3ccccc3C)c3cncn3c2cc1NC(=O)C#CCN1CCCCC1
[III] Cc1ccccc1Nc1nc2cc(Cl)c(N(C)C(=O)/C=C/CN(C)C)cc2n2cncc12
[IV] CNc1ccc2nc(Nc3cc(F)ccc3C)c3cncn3c2c1
[V] Cc1ccccc1Sc1nc2ccc(N(C)C(=O)/C=C/CN(C)C)cc2n2cncc12
Let's sort these by IC50, smallest first. Go ahead? List each label, following the requested order. II, IV, I, III, V
(II: 21.3 nM, IV: 40 nM, I: 560 nM, III: 1300 nM, V: 19600 nM)

[a] Cc1ccc(O)cc1Nc1nc2ccc(N(C)C(=O)/C=C/CN(C)C)cc2n2cncc12
[b] Cc1ccc(Cl)cc1Nc1nc2ccc(N(C)C(=O)/C=C/CN(C)C)cc2n2cncc12
[c] C=C(CN1CCOCC1)C(=O)Nc1cc2c(cc1OC)nc(Nc1ccccc1C)c1cncn12
[d] Cc1cc(F)ccc1Nc1nc2ccc(N(C)C(=O)/C=C/CN(C)C)cc2n2cncc12
[e] Cc1cccc(Cl)c1Nc1nc2ccc(N(C)C(=O)/C=C/CN(C)C)cc2n2cncc12
Let's sort these by IC50, smallest first. Go ahead? List each label, following the requested order. a, e, c, d, b

[1] Cc1ccc(F)cc1Nc1nc2ccc(N(C)C(=O)/C=C/CN(C)C)cc2n2cncc12
[2] CNc1cc2c(cc1F)nc(Nc1ccccc1C)c1cncn12
Between 1 and 2 , whose recorded IC50 is greater? Give the chosen item's label as your response. 1

[1] COc1cc2nc(Nc3ccccc3C)c3cncn3c2cc1NC(=O)C#CCN1CCOCC1
[2] Cc1ccc(F)cc1Oc1nc2cc(F)c(N(C)C(=O)/C=C/CN(C)C)cc2n2cncc12
[3] Cc1c(Cl)cccc1Nc1nc2ccc(N(C)C(=O)/C=C/CN(C)C)cc2n2cncc12
[4] CCN(C(=O)/C=C/CN(C)C)c1cc2c(cc1OC)nc(Nc1ccccc1C)c1cncn12
Please rank these compounds by IC50 in descending order. List each label, following the requested order. 2, 3, 4, 1
(2: 7400 nM, 3: 2320 nM, 4: 533 nM, 1: 46.6 nM)
